Collected literature values of IC50 measured for Histone deacetylase 1 (Homo sapiens).

Which IC50 is reported with Histone deacetylase 1 (Homo sapiens) for this entry: COc1ccc(N(CCCCCCC(=O)NO)c2ccccn2)nc1 ?
182 nM

Which IC50 is reported with Histone deacetylase 1 (Homo sapiens) for this entry: COCCn1c(=O)n(Cc2ccc(-c3nnc(C(F)F)o3)cn2)c(=O)c2ccccc21 ?
> 10000 nM

Which IC50 is reported with Histone deacetylase 1 (Homo sapiens) for this entry: CCN1CCN(c2ccc3c(c2)C(=O)N(Cc2ccc(-c4nnc(C(F)F)o4)cn2)C(=O)C3(C)C)CC1 ?
> 10000 nM

Which IC50 is reported with Histone deacetylase 1 (Homo sapiens) for this entry: Cc1c(Cc2ccc(C(=O)NO)cc2)c2cc(F)ccc2n1CC1CCN(CC(C)(C)O)CC1 ?
2460 nM

Which IC50 is reported with Histone deacetylase 1 (Homo sapiens) for this entry: CCC(=O)CCCCC[C@H](NC(=O)CCN(C)C)c1nnc(-c2cc3ccccc3nc2OC)o1 ?
< 100 nM

Which IC50 is reported with Histone deacetylase 1 (Homo sapiens) for this entry: CCC(=O)CCCCC[C@H](NC(=O)c1ccnc(Cl)c1)c1ncc(-c2ccccc2)o1 ?
100 to 1000 nM

Which IC50 is reported with Histone deacetylase 1 (Homo sapiens) for this entry: CCN1CCN(c2ccc(-c3ccc(S(=O)(=O)N4CC=C(C(=O)NO)CC4)cc3)cc2)CC1 ?
< 100 nM

Which IC50 is reported with Histone deacetylase 1 (Homo sapiens) for this entry: O=C(/C=C/c1ccc(CN2CCN(Cc3ccccc3)CC2)cc1)NO ?
100 nM
